target: Solute carrier family 2, facilitated glucose transporter member 1 (Homo sapiens); experiment: ST_JUDE_LEISH: Cytotoxicity at 2uM final concentration against transgenic Leishmania Mexicana promastigotes LmGLUT1 that are glucose transport deficient and complemented with the human glucose transporter GLUT1. Activity is measured by DNA content using SYBR green in vitro; format: functional
measurement_name: inhibition (%)
Quick reminder: number only, in %, skip the unit.

Worked cases, answers included:
COc1cc(Nc2nccc(-c3c(-c4cccc(NC(=O)c5c(F)cccc5F)c4)nn4ncccc34)n2)cc(OC)c1OC | 12.1
O=C(/C=C/c1ccc(Cl)c(Cl)c1)NCCCCN1CCCN(C(=O)Nc2ccc(C(F)(F)F)cc2)CC1 | 3.18
CC(C)(C)c1ccc(NC(=O)c2ccc(CN3CCCN(CC4CCCCC4)CC3)cc2)cc1 | 3.27
Fc1ccc(C(OCC2CCCN(Cc3cccc4cccnc34)C2)c2ccc(F)cc2)cc1 (centres undefined) | 2.49
O=C(Nc1ccccc1)N(Cc1ccccc1-c1cccc(CNCCc2ccccc2)c1)C1CCN(Cc2ccccc2)CC1 | -1.02

Query block: # inhibition lookup, item CCN(C(=O)CSc1cc(C)c2cc(C)cc(C)c2n1)C1CCS(=O)(=O)C1 (centres undefined)
Result block: 0.63

Query block: I have this compound here, CC1CC(NCCCNc2cc(=O)c3ccccc3[nH]2)c2c(Cl)c(Cl)cc(Cl)c21 (centres undefined) , and I need its recorded inhibition.
Result block: 5.21

Query block: Entry N#Cc1ccc(-c2ccc(C(=O)NCCCCN3CCC(c4ccc5c(c4OCC(N)=O)CCCC5)CC3)cc2)cc1 : reported inhibition = ?
Result block: 1.23

Query block: I have this compound here, COc1cc(NC(=O)CCCCCCCCN2CCN(C)CC2)c2ncccc2c1 , and I need its recorded inhibition.
Result block: 1.29

---

target: Hexose transporter 1 (Plasmodium falciparum) (UniProt O97467); assay: ST_JUDE_LEISH: Cytotoxicity at 2uM final concentration against transgenic Leishmania Mexicana promastigotes LmPfHT that are glucose transport deficient and complemented with the Plasmodium falciparum hexose transporter. Activity is measured by DNA content using SYBR green in vitro; format: functional
measurement_name: inhibition (%)
// return numeric value only (unit: %, not printed)

COc1ccc(/C=C/C(=O)Nc2ccc(-c3ccncc3)cc2)cc1CCCN(C)C | 5.55
Cc1ccc(C)c(S(=O)(=O)Nc2ccc(Br)cc2C(=O)Nc2cccc(C(F)(F)F)c2)c1 | 0.63

Query block: Form entry - test system: Hexose transporter 1 (Plasmodium falciparum) (UniProt O97467); read-out: inhibition; molecule: Cc1ccc(Nc2ccnc3cc(-c4nccs4)ccc23)cc1C(O)c1ccccc1 (stereo not given)
Result block: 2.96

Query block: API: value(readout= inhibition, system= Hexose transporter 1 (Plasmodium falciparum) (UniProt O97467), query= Cc1cc(C)c2c(c1)C(=NO)CCN2 )
Result block: 1.76

Query block: Fill in the recorded inhibition for this molecule, with Hexose transporter 1 (Plasmodium falciparum) (UniProt O97467) as test system: CC1(C)CC(NC(=O)NC2CCN(Cc3ccccc3)CC2)CC(C)(CNC(=O)NC2CCN(Cc3ccccc3)CC2)C1 (stereo not given)
Result block: 5.93

Query block: Reported inhibition for Hexose transporter 1 (Plasmodium falciparum) (UniProt O97467), given Cn1ccnc1CNC(=O)c1ccc(-c2ccc(-c3nc4cc(C(F)(F)F)ccc4[nH]3)s2)cc1 ?
Result block: 3.3

Query block: Lab note: need inhibition for CCn1c(C=Cc2cc(Br)ccc2O)nc2ccccc2c1=O on Hexose transporter 1 (Plasmodium falciparum) (UniProt O97467), anyone have it?
Result block: 0.39

Query block: GET /values?readout=inhibition&system=Hexose transporter 1 (Plasmodium falciparum) (UniProt O97467)&item= CCC1N=C(N)N=C(N)N1OCc1ccc(Cl)c(Cl)c1 (stereo not given)
Result block: 0.09

Query block: Form field: inhibition recorded for CN1CCN(c2ccnc3ccc(NC(=O)Nc4cccc5c(C#N)cccc45)cc23)CC1 with Hexose transporter 1 (Plasmodium falciparum) (UniProt O97467) (enter value)
Result block: 2.35

---

target: Solute carrier family 2, facilitated glucose transporter member 1 (Homo sapiens); assay: ST_JUDE_LEISH: Cytotoxicity at 2uM final concentration against transgenic Leishmania Mexicana promastigotes LmGLUT1 that are glucose transport deficient and complemented with the human glucose transporter GLUT1. Activity is measured by DNA content using SYBR green in vitro; type: functional
Tag: satisfied if measured inhibition is not below 2%, not satisfied if it is.

COc1ccc2nc3cc(Cl)ccc3c(NCc3ccccc3)c2c1 | satisfied
COc1ccccc1NC(=O)Nc1ccc(-c2cccc(-c3nc4ccccc4[nH]3)c2)cc1 | satisfied
O=C(O)C[C@H](NC(=O)[C@@H]1CCCN1C(=O)c1cccc(-c2ccc(Cl)c(Cl)c2)c1)C(=O)O | not satisfied
CCOC(=O)N1CCN(CCCCNc2c3ccc(Cl)cc3nc3ccc(OC)cc23)CC1 | satisfied

// next entry
Query block: Please tell me: is the compound CN(CC(=O)Nc1cc(C(F)(F)F)ccc1-n1cncn1)Cc1nc2ccccc2s1 at or over 2% in terms of inhibition?
Result block: satisfied

---

biological target: Glucose transporter (Leishmania mexicana); assay: ST_JUDE_LEISH: Cytotoxicity at 2uM final concentration against transgenic Leishmania Mexicana promastigotes LmGT2 that are glucose transport deficient and complemented with the L. Mexicana glucose transporter 2. Activity is measured by DNA content using SYBR green in vitro; type: functional
Record Criterion met whenever inhibition is at 2% or higher; record Criterion not met when lower.

Cc1ccccc1C1CCN(c2ncc(C(=O)NC3CC3)cc2Cl)CC1 | Criterion met

Query block: Is inhibition for NC(=O)c1cccc(CNCc2ccc(-c3cccc(-c4nc5ccccc5[nH]4)c3)cc2)c1 at or above 2%?
Result block: Criterion met

Query block: I'd appreciate it if you could say whether CCCc1cc2c3c(N)nc(N)nc3ccc2n1C(CC)CC has inhibition at least equal to 2%.
Result block: Criterion met

Query block: Could you verify whether the entry O=C1CC(C(=O)Nc2cccc(-c3cccc(-c4nc5ccccc5[nH]4)c3)c2)c2ccccc2N1 (stereo not given) shows inhibition of no less than 2%?
Result block: Criterion not met

Query block: Check the entry c1ccc(CN2CCC(NCc3ccc(-c4ccc(CNCc5cccnc5)cn4)cc3)CC2)cc1 : does inhibition equal or exceed 2%?
Result block: Criterion met

Query block: Threshold query (inhibition >= 2%) on O=C(Nc1ccc(Cn2ncc(N3CCCNCC3)c(Cl)c2=O)cc1)Nc1cc(F)cc(C(F)(F)F)c1
Result block: Criterion not met

Query block: Could you please find out whether Cc1[nH]c2ccc(C#N)cc2c(=O)c1Br has inhibition that meets 2% or exceeds it?
Result block: Criterion not met

Query block: Is inhibition for Cn1ccnc1S(=O)(=O)CCNCc1ccc(-c2ccc3ncnc(Nc4ccc(OCc5cccc(F)c5)c(Cl)c4)c3c2)o1 at or above 2%?
Result block: Criterion not met

Query block: Does the reported inhibition for CC1(C)N=C(N)N=C(N)N1OCc1cccc2c1ccc1ccccc12 fall at or above the 2% mark?
Result block: Criterion not met

Query block: Determine whether this compound has inhibition no lower than 2%: Cc1cc(N[C@@H](CC(C)C)C(=O)Nc2ccccc2)nc(NCCc2ccc(F)cc2)n1
Result block: Criterion not met

---

inhibition by entry:
target: Hexose transporter 1 (Plasmodium falciparum); experiment: ST_JUDE_LEISH: Cytotoxicity at 2uM final concentration against transgenic Leishmania Mexicana promastigotes LmPfHT that are glucose transport deficient and complemented with the Plasmodium falciparum hexose transporter. Activity is measured by DNA content using SYBR green in vitro; type: functional
Give the quantity in %, number only.

Query block: Using the record for O=C(NC1CCN(CC2(c3ccc(Cl)cc3)CCCCC2)CC1)c1cc[nH]n1 , report its inhibition.
Result block: 2.9

Query block: Could you share which inhibition value was measured for CN1CCC(C(=O)N(Cc2ccc(-c3ccc(CNCCc4ccc(S(C)(=O)=O)cc4)cn3)cc2)C2Cc3ccccc3C2)CC1 ?
Result block: -0.29

Query block: Need inhibition, item COc1cc(Br)c(S(=O)(=O)n2cc(CN3CCC(N)CC3)c3cc(Cl)ccc32)cc1OC
Result block: 2.11

Query block: Look up inhibition for this compound: CCOc1cc(C(=O)N[C@@H](Cc2ccccc2)[C@H](O)CNCc2cccc(OC)c2)cc(N2CCCCS2(=O)=O)c1
Result block: 5.25

---

target: Glucose transporter (Leishmania mexicana); experiment: ST_JUDE_LEISH: Cytotoxicity at 2uM final concentration against transgenic Leishmania Mexicana promastigotes LmGT2 that are glucose transport deficient and complemented with the L. Mexicana glucose transporter 2. Activity is measured by DNA content using SYBR green in vitro; type: functional
measurement_name: inhibition (%)
Dear colleague, please return just the value in %, with no unit written.

Here are 5 compounds together with their reported answers.
CN(C)CCn1cc(C(=O)c2cc(Cl)ccc2O)cc1-c1nc2ccccc2c(=O)[nH]1 | -2.96
N#Cc1ccc(N/C(=N\c2ccccc2Br)N(C2CCCCC2)C2CCCCC2)c(O)c1 | 5.56
CCOC(=O)c1c(C)noc1Nc1ccc(OC)cc1 | 2.21
Cc1ccc(Nc2c3ccccc3nc3ccc(C)cc23)cc1 | 2.9
c1ccc2[nH]c(-c3ccc(-c4ccc(CN5CCN(c6ccncc6)CC5)cc4)s3)nc2c1 | 1.74

Query block: Any idea what inhibition was measured for COc1ccccc1-c1csc(C(=O)NCC2CCN(Cc3ccc(C(C)C)cc3)C2)c1 (stereo unspecified) ?
Result block: -1.65

Query block: Data request, read-out inhibition, for CC(C)CNCc1ccc(-c2ccc(CN(CCCN3CCN(C)CC3)C(=O)/C=C/c3ccccc3)cc2)cc1
Result block: 3.32

Query block: Field request: inhibition | item: CCCCCc1cc(OC(C)=O)c2c(c1)OC(C)(C)C=C2C1=CCN(Cc2ccccc2)CC1
Result block: -1.92

Query block: Form field: reported inhibition of COc1ccc2[nH]c(C)cc(=NN=Cc3cccc(Cl)c3)c2c1
Result block: -1.05

Query block: Requested field: inhibition. Item: Cc1cccc(CN2CCN(c3ncc(C(=O)NC4CC4)cc3Cl)CC2)c1
Result block: 2.71

Query block: Requested read-out: inhibition. Entry: CCN(C1CCCCC1)S(=O)(=O)c1ccc(OC)c(N2CCN(C(=O)C(Cl)(Cl)Cl)CC2)c1
Result block: -0.47

Query block: Need inhibition of O=C(NC(Cc1ccccc1)C(=O)O)c1cc(=O)c2ccccc2o1 (stereo unspecified) , thanks.
Result block: 0.99
